# test: Substrate specificity of WNanoKAZ mutants, crude enzyme solution (Example 11)
# Type: biochemical
# study-conditions: Imax
# Procedure: DTT was added to the crude enzyme solution obtained in EXAMPLE 9 at a final concentration of 1 mM, and then allowed to stand in an ice-water bath over 8 hours or more. After 1 μL of the crude enzyme solution was added to 100 μL of 30 mM Tris-HCl (pH 7.6)-10 mM EDTA (Wako Pure Chemical Industries, Ltd.) containing 1 μg of coelenterazine (manufactured by JNC Corp.), a luminescence reaction was started. […] The maximum intensity of luminescence (Imax) was given as a relative luminescence activity (rlu). […]
quantity-measured: Relative luminescence activity, h-CTZ, Imax
Number, no unit, nothing else.

Which measured Relative luminescence activity, h-CTZ, Imax value corresponds to WNanoKAZ: chimeric protein: positions 1-82 of native KAZ and 83-169 of nanoKAZ; SEQ ID NO: 6; I90V, P115E, Q124K, Y138I, N166R (protein, chimeric protein: positions 1-82 of native KAZ and 83-169 of nanoKAZ; I90V, P115E, Q124K, Y138I, N166R) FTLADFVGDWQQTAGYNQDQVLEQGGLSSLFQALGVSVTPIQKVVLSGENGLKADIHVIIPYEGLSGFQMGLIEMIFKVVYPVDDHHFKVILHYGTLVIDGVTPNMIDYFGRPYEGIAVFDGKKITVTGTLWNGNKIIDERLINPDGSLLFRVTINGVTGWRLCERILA ?
64
